Where these numbers come from: paper PMC11079029

- Assayed System: T1, PRPF40A WW12 (tandem WW domains, residues 141–236) (Homo sapiens, UniProt O75400)
- T1 construct: WW12 141–236, WW12long 141–248, and N-ext-WW12 56–236; 6xHis-TEV site (N, cleaved yes); made in house; host or cells: Escherichia coli BL21(DE3)
- T1 sequence (O75400 141-236): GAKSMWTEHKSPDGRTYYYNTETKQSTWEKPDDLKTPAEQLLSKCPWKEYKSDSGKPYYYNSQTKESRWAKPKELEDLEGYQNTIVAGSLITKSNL
- Assay Name: ITC of PRPF40A WW12 with GB1-tagged proline-rich peptides and constructs
- Assay type: binding
- Experimental Conditions: source data of Fig. 4C,D; ITC as E4; individual value 1; read-out: Kd (mM), Individual values
Reported Metric: Kd (mM)
Value expressed in mM; do not type the unit.

Use the examples below as a reference point.
* SF1 Pro CD: GB1-tagged SF1 construct, residues 539–639 (protein, left off: His6, N-terminal, state not stated | GB1, N-terminal, kept) GSIPPWQQQQAAAAASPGAPQMQGNPTMVPLPPGVQPPLPPGAPPPPPPPPPGSAGMMYAPPPPPPPPMDPSNFVTMMGMGVAGMPPFGMPPAPPPPPPQN | 0.00283
* SF1 Pro BCD: GB1-tagged SF1 construct, residues 468–639 (protein, left off: His6, N-terminal, state not stated | GB1, N-terminal, kept) GMMPPPPMGMMPPPPPPPSGQPPPPPSGPLPPWQQQQQQPPPPPPPSSSMASSTPLPWQQNTTTTTTSAGTGSIPPWQQQQAAAAASPGAPQMQGNPTMVPLPPGVQPPLPPGAPPPPPPPPPGSAGMMYAPPPPPPPPMDPSNFVTMMGMGVAGMPPFGMPPAPPPPPPQN | 0.00293

Annotate the molecule SF1 Pro ABCD: GB1-tagged SF1 construct, residues 410–639 (protein, left off: His6, N-terminal, state not stated | GB1, N-terminal, kept) GHPMQHNPNGPPPPWMQPPPPPMNQGPHPPGHHGPPPMDQYLGSTPVGSGVYRLHQGKGMMPPPPMGMMPPPPPPPSGQPPPPPSGPLPPWQQQQQQPPPPPPPSSSMASSTPLPWQQNTTTTTTSAGTGSIPPWQQQQAAAAASPGAPQMQGNPTMVPLPPGVQPPLPPGAPPPPPPPPPGSAGMMYAPPPPPPPPMDPSNFVTMMGMGVAGMPPFGMPPAPPPPPPQN with its measured Kd.
0.00541
